Molecular target: T1, Cre recombinase monomer with Q311R mutation
T1 chain: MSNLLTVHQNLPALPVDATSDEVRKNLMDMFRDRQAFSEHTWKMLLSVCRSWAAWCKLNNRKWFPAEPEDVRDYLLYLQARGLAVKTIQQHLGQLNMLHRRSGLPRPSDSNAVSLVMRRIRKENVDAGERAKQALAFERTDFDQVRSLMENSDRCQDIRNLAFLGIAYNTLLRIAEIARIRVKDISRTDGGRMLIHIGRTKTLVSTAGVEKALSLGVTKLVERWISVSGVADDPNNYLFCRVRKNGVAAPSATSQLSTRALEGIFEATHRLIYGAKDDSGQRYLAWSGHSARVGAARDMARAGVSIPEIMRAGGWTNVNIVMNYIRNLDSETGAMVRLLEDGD
PROPERTY_MEASURED: Median dimer activity (recombination on loxP)
The reply must contain the numeric value and, after it, the unit.

Report Median dimer activity (recombination on loxP) for Cre recombinase monomer with R292W mutation (protein) MSNLLTVHQNLPALPVDATSDEVRKNLMDMFRDRQAFSEHTWKMLLSVCRSWAAWCKLNNRKWFPAEPEDVRDYLLYLQARGLAVKTIQQHLGQLNMLHRRSGLPRPSDSNAVSLVMRRIRKENVDAGERAKQALAFERTDFDQVRSLMENSDRCQDIRNLAFLGIAYNTLLRIAEIARIRVKDISRTDGGRMLIHIGRTKTLVSTAGVEKALSLGVTKLVERWISVSGVADDPNNYLFCRVRKNGVAAPSATSQLSTRALEGIFEATHRLIYGAKDDSGQRYLAWSGHSAWVGAARDMARAGVSIPEIMQAGGWTNVNIVMNYIRNLDSETGAMVRLLEDGD please.
88%
